Test system: cancer cell lines
Assay: Cancer cell proliferation activity (CellTiterGlo, 72 h)
Format: cell-based
Settings: Homo sapiens, Panc1005, 72 h, PANC1005 cell line (pancreas), 72 h; read-out: IC50
Protocol: Dose response relationships on cell proliferation was assessed for representative Compounds of the Disclosure on cancer cell lines. […] Cells were cultured in the appropriate media. […] After incubation for 72 h at 37° C. at 5% or 10% CO2 dependent on the medium, cell plates were equilibrated to room temperature for one hour, CellTiterGlo reagent (Promega) was added and luminescence was measured approximately an hour later using a luminometer. […]
Test readout: IC50 (nM)

// worked examples, IC50 included
>  <Compound>
CC[C@]1(CO)O[C@@H](n2cnc3c(N)nc(F)nc32)[C@H](O)[C@@H]1O [Cpd. No. 173]

>  <Result units>
nM

>  <IC50>
130

$$$$
>  <Compound>
CCC[C@]1(CO)O[C@@H](n2cnc3c(N)nc(F)nc32)C[C@@H]1O [Cpd. No. 129]

>  <Result units>
nM

>  <IC50>
230

$$$$
>  <Compound>
CC(C)C[C@]1(CO)O[C@@H](n2cnc3c(N)nc(F)nc32)C[C@@H]1O [Cpd. No. 133]

>  <Result units>
nM

>  <IC50>
2980

$$$$
>  <Compound>
Nc1ccn([C@@H]2O[C@H](CO)[C@@H](O)C2(F)F)c(=O)n1 [gemcitabine, reference compound]

>  <Result units>
nM

>  <IC50>
7.9

$$$$
>  <Compound>
CC[C@]1(CO)O[C@@H](n2cnc3c(N)nc(F)nc32)C[C@@H]1O [Cpd. No. 1]

>  <Result units>
nM

>  <IC50>
440

$$$$
>  <Compound>
C[C@]1(CO)O[C@@H](n2cnc3c(N)nc(F)nc32)C[C@@H]1O [Cpd. No. 126]

>  <Result units>
nM

>  <IC50>
240

$$$$

I: COC[C@]1(CO)O[C@@H](n2cnc3c(N)nc(F)nc32)C[C@@H]1O [Cpd. No. 140]
II: Nc1nc(F)nc2c1ncn2[C@H]1C[C@H](O)[C@](CO)(CF)O1 [compound 150]
Q. Could you point out whether the larger IC50 belongs to I or to II ? Pick one; state its label.
A. II
(II: 1410 nM, I: 370 nM)

---

System: cancer cell lines
Assay: Cancer cell proliferation activity (CellTiterGlo, 72 h)
Assay type: cell-based
Details: Homo sapiens, PLC-PRF-5, 72 h, PLCPRF5 cell line (liver), 72 h; read-out: IC50
Test readout: IC50 (µM)

>  <Molecule smiles>
O=c1[nH]c(=O)n([C@H]2C[C@H](O)[C@](CO)(CF)O2)cc1F

>  <Result units>
µM

>  <IC50>
3.79

$$$$

1: COC[C@]1(CO)O[C@@H](n2cnc3c(N)nc(F)nc32)C[C@@H]1O
2: C[C@]1(CO)O[C@@H](n2cc(F)c(=O)[nH]c2=O)C[C@@H]1O
Q. Could you point out whether the larger IC50 belongs to 1 or to 2 ? Pick one; state its label.
A. 1

---

Tested on: cancer cell lines
Assay: Cancer cell proliferation activity (CellTiterGlo, 72 h)
Assay type: cell-based
Settings: Homo sapiens, HT-1080, 72 h, HT1080 (connective tissue), 72 h; read-out: IC50 cell proliferation
Test readout: IC50 (µM)

// worked examples, IC50 included
>  <Molecule smiles>
Nc1nc(=O)n([C@H]2C[C@H](O)[C@@H](CO)O2)cc1F

>  <Result units>
µM

>  <Quantitative result>
0.008

$$$$
>  <Molecule smiles>
Nc1ccn([C@H]2C[C@H](O)[C@](CO)(CF)O2)c(=O)n1

>  <Result units>
µM

>  <Quantitative result>
0.38

$$$$
>  <Molecule smiles>
Nc1nc(=O)n([C@H]2C[C@H](O)[C@](CO)(CF)O2)cc1F

>  <Result units>
µM

>  <Quantitative result>
0.046

$$$$
>  <Molecule smiles>
CCC[C@]1(CO)O[C@@H](n2cnc3c(N)nc(F)nc32)[C@H](O)[C@@H]1O

>  <Result units>
µM

>  <Quantitative result>
0.27

$$$$
>  <Molecule smiles>
Nc1nc(F)nc2c1ncn2[C@@H]1O[C@H](CO)[C@@H](O)[C@@H]1O

>  <Result units>
µM

>  <Quantitative result>
4.09

$$$$
>  <Molecule smiles>
C[C@]1(CO)O[C@@H](n2cnc3c(N)nc(F)nc32)[C@H](O)[C@@H]1O

>  <Result units>
µM

>  <Quantitative result>
2.09

$$$$
>  <Molecule smiles>
Nc1nc(F)nc2c1ncn2[C@H]1C[C@H](O)[C@@H](CO)O1

>  <Result units>
µM

>  <Quantitative result>
2.79

$$$$
>  <Molecule smiles>
Nc1nc(F)nc2c1ncn2[C@@H]1O[C@H](CO)[C@@H](O)[C@H]1O

>  <Result units>
µM

>  <Quantitative result>
0.07

$$$$

1: C[C@]1(CO)O[C@@H](n2ccc(N)nc2=O)[C@@H](O)[C@@H]1O
2: C[C@]1(CO)O[C@@H](n2ccc(N)nc2=O)C(F)(F)[C@@H]1O
Q. Given the listed items, does 1 or 2 have the lesser reported IC50? Pick one; state its label.
A. 1

---

System: cancer cell lines
Test: Cancer cell proliferation activity (CellTiterGlo, 72 h)
Type: cell-based
Details: Homo sapiens, OVCAR-4, 72 h, OVCAR4 (ovary), 72 h; read-out: IC50 cell proliferation
Test readout: IC50 (nM)

>  <Molecule smiles>
Nc1nc(F)nc2c1ncn2[C@@H]1O[C@H](CO)[C@@H](O)[C@H]1O

>  <Quantitative result>
50

$$$$
>  <Molecule smiles>
Nc1nc(F)nc2c1ncn2[C@@H]1O[C@H](CO)[C@@H](O)[C@@H]1O

>  <Quantitative result>
16300

$$$$

A: C[C@]1(CO)O[C@@H](n2cnc3c(N)nc(F)nc32)[C@H](O)[C@@H]1O
B: Nc1nc(=O)n([C@H]2C[C@H](O)[C@@H](CO)O2)cc1F
C: Nc1nc(F)nc2c1ncn2[C@H]1C[C@H](O)[C@@H](CO)O1
D: CCC[C@]1(CO)O[C@@H](n2cnc3c(N)nc(F)nc32)[C@H](O)[C@@H]1O
Q. Ranking field: IC50; order: falling. # respond with the labels, arranged in the requested order
A. C, B, D, A

---

Tested on: cancer cell lines
Assay: Cancer cell proliferation activity (CellTiterGlo, 72 h)
Format: cell-based
Settings: Homo sapiens, Calu-6, 72 h, CALU6 cell line (lung), 72 h; read-out: IC50
pIC50: −log10 of the molar value.
Test readout: pIC50

1: C[C@]1(CO)O[C@@H](n2cc(F)c(=O)[nH]c2=O)C[C@@H]1O
2: CCC[C@]1(CO)O[C@@H](n2cnc3c(N)nc(F)nc32)C[C@@H]1O
3: O=c1[nH]c(=O)n([C@H]2C[C@H](O)[C@](CO)(CF)O2)cc1F
Q. Kindly sort the 3 compounds above from the smallest to the largest pIC50. # respond with the labels, arranged in the requested order
A. 3, 1, 2
(3: 5.33, 1: 5.77, 2: 6.52)

---

System: cancer cell lines
Assay: Cancer cell proliferation activity (CellTiterGlo, 72 h)
Assay type: cell-based
Details: Homo sapiens, DLD-1, 72 h, DLD1 (colon), 72 h; read-out: IC50 cell proliferation
Test readout: IC50 (µM)

// worked examples, IC50 included
>  <Compound>
Nc1nc(=O)n([C@H]2C[C@H](O)[C@](CO)(CF)O2)cc1F [Cpd. No. 197]

>  <IC50 / µM>
8.97

$$$$
>  <Compound>
Nc1nc(F)nc2c1ncn2[C@H]1C[C@H](O)[C@@H](CO)O1 [compound 171]

>  <IC50 / µM>
1.03

$$$$
>  <Compound>
CCC[C@]1(CO)O[C@@H](n2cnc3c(N)nc(F)nc32)[C@H](O)[C@@H]1O [compound 195]

>  <IC50 / µM>
0.51

$$$$
>  <Compound>
Nc1nc(F)nc2c1ncn2[C@@H]1O[C@H](CO)[C@@H](O)[C@H]1O [compound 184]

>  <IC50 / µM>
0.09

$$$$
>  <Compound>
Nc1nc(F)nc2c1ncn2[C@@H]1O[C@H](CO)[C@@H](O)[C@@H]1O [compound 170]

>  <IC50 / µM>
11.4

$$$$

a: C[C@]1(CO)O[C@@H](n2cnc3c(N)nc(F)nc32)[C@H](O)[C@@H]1O [Cpd. No. 178]
b: Nc1nc(=O)n([C@H]2C[C@H](O)[C@@H](CO)O2)cc1F [compound 169]
c: C[C@]1(CO)O[C@@H](n2ccc(N)nc2=O)[C@@H](O)[C@@H]1O [Cpd. No. 193]
Q. Order the records, beginning with the lowest IC50 and ending with the highest. # respond with the labels, arranged in the requested order
A. b, a, c
(b: 0.016 µM, a: 0.35 µM, c: 4.02 µM)

// data source = patent US20250215039A1
